# Test system: Candida albicans
# TEST_NAME: Antifungal activity against Candida albicans ATCC 10259 after 3 days by microdilution assay
# Assay type: functional
# CONDITION_PARAMETERS: ATCC 10259, 72 h

[
  {
    "COMPOUND": "COc1ccc(-c2coc3cc(O)ccc3c2=O)cc1",
    "MIC": "> 100 µg/mL"
  },
  {
    "COMPOUND": "COc1ccc([C@@H]2COc3cc(O)ccc3C2)c(O)c1",
    "MIC": "> 100 µg/mL"
  },
  {
    "COMPOUND": "COC1=CC(=O)C([C@@H]2COc3cc(O)ccc3C2)=CC1=O",
    "MIC": "50 µg/mL"
  },
  {
    "COMPOUND": "COc1ccc(C2COc3cc(O)ccc3C2)c(OC)c1O (racemic) [MUCRONULATOL(+/-)]",
    "MIC": "> 100 µg/mL"
  },
  {
    "COMPOUND": "COC1=CC(=O)C(c2coc3cc(O)cc(O)c3c2=O)=CC1=O",
    "MIC": "> 100 µg/mL"
  }
]
